B1: CPOX (parent)
chain: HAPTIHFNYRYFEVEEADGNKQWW

# Variants of: B1
# TEST METHOD NOTES: protein stability index of a GFP-peptide fusion (GPS, HEK-293T) (PSI 1-6); higher = more stable;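 note: lentivirally expressed fusions sorted by FACS into six bins by GFP to DsRed ratio, PSI derived from sequencing read proportions per bin multiplied by bin number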
# CONDITIONS USED: c terminus: a fixed tail appended
Recorded protein stability index by entry
READOUT KIND: protein stability index

HAPTIHFNYHYFEVEEADGNKQWW [R10H]    2.44
HAPTIHFNYGYFEVEEADGNKQWW [R10G]    2.42
HAPTIHFNYFYFEVEEADGNKQWW [R10F]    1.77
HAPTIHFNYRYHEVEEADGNKQWW [F12H]    3.01
MAPTIHFNYRYFEVEEADGNKQWW [H1M]    2.15
HAPTIHFNYRYFCVEEADGNKQWW [E13C]    2.07
HAPTIHFNYRYFEVEEADGNKQWT [W24T]    2.86
HAPTIHFNYDYFEVEEADGNKQWW [R10D]    3.03
HAPTIHKNYRYFEVEEADGNKQWW [F7K]    3.03
HAPTIHFNWRYFEVEEADGNKQWW [Y9W]    3.32
HAPTIHFNYRYFEVKEADGNKQWW [E15K]    2.56
HAPTIHFNYRYFEVESADGNKQWW [E16S]    2.24
HFPTIHFNYRYFEVEEADGNKQWW [A2F]    2.26
HAPTIHFNYRYFFVEEADGNKQWW [E13F]    1.63
HAPTIHFNYRYFEDEEADGNKQWW [V14D]    3.06
HAPDIHFNYRYFEVEEADGNKQWW [T4D]    2.96
HAPTIHFNYRYFEVEEADGNKLWW [Q22L]    2.01
HAPTIHFNYRYFEVEEADGNKQWY [W24Y]    2.51
HAPHIHFNYRYFEVEEADGNKQWW [T4H]    2.62
HAPVIHFNYRYFEVEEADGNKQWW [T4V]    2.45
HAPTCHFNYRYFEVEEADGNKQWW [I5C]    2.4
HAPTIHFNTRYFEVEEADGNKQWW [Y9T]    2.79
